assay: Half-life in RPMI 1640 containing 10% heat inactivated fetal calf serum culture medium at step 1; assay type: ADME, Bos taurus; settings: cattle
The following molecules are listed with their measured half-life values.
Give your result in h as a bare value.

1. Cc1cn([C@H]2C[C@H](N=[N+]=[N-])[C@@H](COP(=O)(OCCSC(=O)C(C)(C)C)Oc3ccccc3)O2)c(=O)[nH]c1=O (some centres not stated) = 72

Please turn your attention to the following entry.
Exercise: For the molecule Cc1cn([C@H]2C[C@H](N=[N+]=[N-])[C@@H](COP(=O)(OCCSC(=O)C(C)(C)C)Oc3ccc(CC(N)C(=O)O)cc3)O2)c(=O)[nH]c1=O.Cl (some centres not stated) , report half-life.
Solution: 86.4

====

system: CEM-SS; test: Compound was tested for inhibitory activity against HIV-1 replication in CEM-SS cells; format: functional, cell-based; conditions: Homo sapiens
The following molecules are listed with their measured pIC50 values.
Remember, pIC50 is on a log scale: it is -log10 of the molar concentration.

Example molecules with recorded pIC50:
1. Cc1cn([C@H]2C[C@H](N=[N+]=[N-])[C@@H](COP(=O)(OCCSC(=O)C(C)(C)C)Oc3ccc(CC(N)C(=O)O)cc3)O2)c(=O)[nH]c1=O.Cl (stereo partly drawn) = 8.22
2. Cc1cn([C@H]2C[C@H](N=[N+]=[N-])[C@@H](COP(=O)(OCCSC(=O)C(C)(C)C)Oc3ccccc3)O2)c(=O)[nH]c1=O (stereo partly drawn) = 9.00

Please turn your attention to the following entry.
Exercise: For the molecule Cc1cn([C@H]2C[C@H](N=[N+]=[N-])[C@@H](CO)O2)c(=O)[nH]c1=O , report pIC50.
Solution: 8.22
